Reference source for all entries: paper PMC10931833

Please go through the items and note down their Regular Beta Sheet.
- measurement-target: BSA (Bos taurus, UniProt P02769)
- Construct: purchased Millipore Sigma-Aldrich
- Sequence (P02769 25-607): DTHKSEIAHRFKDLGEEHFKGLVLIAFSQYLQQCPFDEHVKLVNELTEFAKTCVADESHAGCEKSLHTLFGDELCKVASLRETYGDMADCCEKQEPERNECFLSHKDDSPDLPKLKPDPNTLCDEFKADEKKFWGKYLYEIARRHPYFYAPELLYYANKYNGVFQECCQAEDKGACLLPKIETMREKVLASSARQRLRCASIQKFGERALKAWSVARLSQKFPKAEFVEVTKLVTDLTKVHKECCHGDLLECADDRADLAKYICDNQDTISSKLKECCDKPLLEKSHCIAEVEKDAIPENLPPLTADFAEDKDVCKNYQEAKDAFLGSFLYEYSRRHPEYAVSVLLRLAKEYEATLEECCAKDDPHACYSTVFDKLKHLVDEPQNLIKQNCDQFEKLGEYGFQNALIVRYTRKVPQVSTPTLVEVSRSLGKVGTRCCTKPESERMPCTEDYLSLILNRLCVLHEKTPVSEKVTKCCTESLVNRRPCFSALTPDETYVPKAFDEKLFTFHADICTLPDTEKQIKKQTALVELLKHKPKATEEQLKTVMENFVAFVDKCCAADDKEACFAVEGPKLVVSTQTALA
- test: Far-UV CD secondary structure of BSA (CONTIN-LL deconvolution)
- Assay type: physicochemical, bovine
- Set-up: unit not given here
- experimental-setup: 1.0 mg/mL BSA, 90 mM component, 25 °C
Answers are plain numbers.

These solved cases illustrate the format of a correct answer.
• C[N+](C)(C)CCO.O=S(=O)([O-])C(F)(F)C(F)(F)C(F)(F)C(F)(F)F [[N1112(OH)][C4F9SO3]] = 0.022
• OC[C@H]1O[C@@](CO)(O[C@H]2O[C@H](CO)[C@@H](O)[C@H](O)[C@H]2O)[C@@H](O)[C@@H]1O [Sucrose, sucrose] = 0.000

Need Regular Beta Sheet for each of these compounds.
1. CCn1cc[n+](C)c1.O=S(=O)([O-])C(F)(F)C(F)(F)C(F)(F)C(F)(F)F
2. CCCCn1cc[n+](C)c1.O=S(=O)([O-])C(F)(F)F [[C4C1Im][CF3SO3]]
3. C[N+](C)(C)CCO.C[N+](C)(C)CCO.O=P([O-])(O)O.O=P([O-])(O)O [[N1112(OH)][H2PO4]]

Result:
1. 0.004
2. 0.007
3. 0.057

----------
Field: ΔHcal. Provide a value for each of the compounds that follow.
- measurement-target: BSA (Bos taurus, UniProt P02769)
- Construct: purchased Millipore Sigma-Aldrich
- test: DSC thermal unfolding of BSA in water and aqueous solutions of ABS phase-forming components
- Type: physicochemical, bovine
- experimental-setup: 1.0 mg/mL BSA, 0.1 mM component
Give bare numbers, in kcal/mol.

• CCCCn1cc[n+](C)c1.O=S(=O)([O-])C(F)(F)F [[C4C1Im][CF3SO3]] = 122.6
• C[N+](C)(C)CCO.C[N+](C)(C)CCO.O=P([O-])(O)O.O=P([O-])(O)O [[N1112(OH)][H2PO4]] = 105.9
• C[N+](C)(C)CCO.O=S(=O)([O-])C(F)(F)C(F)(F)C(F)(F)C(F)(F)F [[N1112(OH)][C4F9SO3]] = 144.1
• OC[C@H]1O[C@@](CO)(O[C@H]2O[C@H](CO)[C@@H](O)[C@H](O)[C@H]2O)[C@@H](O)[C@@H]1O = 125

Below: the item to evaluate.
Form: item CCn1cc[n+](C)c1.O=S(=O)([O-])C(F)(F)C(F)(F)C(F)(F)C(F)(F)F ; test system BSA (Bos taurus, UniProt P02769); ΔHcal: 120.2

----------
- measurement-target: FITC-IFN-α2b (Homo sapiens, UniProt P01563)
- Construct: single non-glycosylated polypeptide chain with a molecular weight of 19 kDa, comprising 165 amino acids; purchased Millipore Sigma-Aldrich SRP4595-100UG; host or cells: E. coli
- test: MST binding to FITC-IFN-α2b
- experimental-setup: 0.41 μM IFN-α2b; max. conc. first capillary in 2nd CAC range; 25 °C; read-out: Kd
result-type: pKd
Give bare numbers, as −log10 of the molar value.

// compound CCn1cc[n+](C)c1.O=S(=O)([O-])C(F)(F)C(F)(F)C(F)(F)C(F)(F)F , assay FITC-IFN-α2b (Homo sapiens, UniProt P01563), pKd value: 3.15
